System: WPMY1-TUBA1B-RELA
assay_overview: phenotypically active (imaging signature differs from DMSO and reproducible) at any of 0.3-9 uM (binary (1 = active, 0 = inactive)); higher = active
measurement_conditions: treatment time: 24 h
This section presents compounds with their documented phenotypically active values.
The response must contain the number and no unit.

Enquiry: Suppose we examine the compound NC(=O)c1ncn([C@@H]2O[C@H](CO)[C@@H](O)[C@H]2O)c1N ; what phenotypically active value has been reported?
Return: 0

Enquiry: Now this one: Cn1nnc2c(C(N)=O)ncn2c1=O [temozolomide]
Return: 0

Enquiry: Continue with C[C@H](NCCc1ccc(O)cc1)[C@H](O)c1ccc(O)cc1
Return: 0

Enquiry: Again, but for CS(=O)(=O)c1cccc(CNc2nc(Nc3ccc4c(c3)CCC(=O)N4)ncc2C(F)(F)F)c1
Return: 1

Enquiry: Same question for O=C(NCCO)c1cc(C(=O)NCCO)cc(C(=O)NCCO)c1 please.
Return: 0

###

Test system: A549-TP53BP1-CLTA
assay_overview: phenotypically active (imaging signature differs from DMSO and reproducible) at any of 0.3-9 uM (binary (1 = active, 0 = inactive)); higher = active
measurement_conditions: treatment time: 24 h
Structures can show the parent of a compound that is named as a salt.
Please answer using one outcome listed in true (1) for active, false (0) for inactive

Here are 4 compounds together with their reported answers.
O=C(/C=C/c1ccc2ccccc2n1)c1ccncc1	false (0)
O=C(OC12CC3CC(CC(C3)C1)C2)c1ccc(NCc2cc(O)ccc2O)cc1	true (1)
COc1c2occc2cc2ccc(=O)oc12	false (0)
Cc1ccc(C(=O)c2cc(O)c(O)c([N+](=O)[O-])c2)cc1	false (0)

Enquiry: Record request — test call for CCC(=O)N1CCOc2c(cc(-c3ccc(OC)c(OC)c3)cc2OC[C@H]2CCCN(C)C2)C1
Return: false (0)

Enquiry: Same lookup for C#CCN[C@@H]1CCc2ccccc21 , please.
Return: false (0)

Enquiry: Another compound to check: CCCc1cc2c(N3CCN(C4=NCC(C)(C)S4)CC3)ncnc2s1 [MI 2 dihydrochloride]
Return: false (0)

Enquiry: What do we get for Cc1ccc(NC2=CC(=O)c3sc(C)nc3C2=O)cc1 ?
Return: true (1)

###

Listed next: entries and their corresponding lowest phenotypically active concentration.
System: A549-ACTB-RAB5A
assay_overview: lowest phenotypically active concentration; higher = less potent
measurement_conditions: treatment time: 24 h
Counter-ions that a name gives are not always drawn.

Study these solved cases before continuing.
CC(=O)[C@@]1(O)CC[C@H]2[C@@H]3C[C@H](C)C4=CC(=O)C=C[C@]4(C)[C@@]3(F)[C@@H](O)C[C@@]21C	≤ 0.3 µM
CC1(C)O[C@@H]2C[C@H]3[C@@H]4C[C@H](F)C5=CC(=O)CC[C@]5(C)[C@H]4[C@@H](O)C[C@]3(C)[C@]2(C(=O)CO)O1 [flurandrenolide]	≤ 0.3 µM
O=C(NOCC1CC1)c1ccc(F)c(F)c1Nc1ccc(I)cc1Cl	≤ 0.3 µM
CN1C(=O)/C(=C2/Nc3ccccc3/C2=N/O)c2ccc(Br)cc21	≤ 0.3 µM
Cc1cc(Nc2cc(N3CCN(C)CC3)nc(Sc3ccc(NC(=O)C4CC4)cc3)n2)[nH]n1	≤ 0.3 µM

Enquiry: Requested field: lowest phenotypically active concentration. Item: Nc1ccn([C@@H]2O[C@H](CO)[C@@H](O)[C@@H]2O)c(=O)n1
Return: ≤ 0.3 µM

Enquiry: Okay, and COc1cccc(-c2cc(F)ccc2[C@H]2Cc3nc(N)nc(C)c3C(=O)N2)n1 ?
Return: ≤ 0.3 µM

Enquiry: Please answer likewise for CCCC1(CCC)CCC2(CCN(CCCN(CC)CC)C2)CC1 [Atiprimod dihydrochloride]
Return: ≤ 0.3 µM

Enquiry: // repeat for CN1CCN([C@H]2CC[C@H](n3cc(-c4ccc(Oc5ccccc5)cc4)c4c(N)ncnc43)CC2)CC1 and report
Return: ≤ 0.3 µM

Enquiry: Likewise for CN(C)c1ccc(C(=O)NCCCCCCC(=O)NO)cc1 ?
Return: ≤ 0.3 µM

Enquiry: Entry O=C(c1cccc(Cl)c1F)N1CCN(Cc2cccc(Nc3nccs3)n2)CC1 please
Return: ≤ 0.3 µM

###

System: HepG2-GM130-SQSTM1
assay_overview: phenotypically active (imaging signature differs from DMSO and reproducible) at any of 0.3-9 uM (binary (1 = active, 0 = inactive)); higher = active
measurement_conditions: treatment time: 24 h
endpoint_label: phenotypically active
Hey, just send me the number, nothing else.

C#CCN(C)Cc1ccccc1	0
Cc1noc(C)c1Cn1cc(C#N)c2cc(Oc3ccc(NC(=O)[C@@H]4CCCN4)cc3)ccc21	1
Cc1cc(C(=O)NNCc2ccccc2)no1	0
O=P(O)(O)C(O)(Cc1cccnc1)P(=O)(O)O [risedronate]	0
C/C(=C/C(=O)Nc1ccccc1C(=O)O)c1ccc2ccccc2c1	0
O=C(Nc1ccccc1)c1cc([N+](=O)[O-])ccc1Cl	0
CCOc1ccc2nc(S(N)(=O)=O)sc2c1 [ethoxzolamide]	1
C[C@H](NCCc1ccc(O)cc1)[C@H](O)c1ccc(O)cc1	0

Field: next compound
Enquiry: Form: Entry = CS(=O)(=O)OCCCCOS(C)(=O)=O | System = HepG2-GM130-SQSTM1 | phenotypically active = ____
Return: 0

###

Test system: HepG2-TUBA1B-RELA
assay_overview: phenotypically active (imaging signature differs from DMSO and reproducible) at any of 0.3-9 uM (binary (1 = active, 0 = inactive)); higher = active
measurement_conditions: treatment time: 24 h
Counter-ions that a name gives are not always drawn.
Choose one outcome from this list and give only that: active, inactive

CC1(C)O[C@@H]2C[C@H]3[C@@H]4C[C@H](F)C5=CC(=O)C=C[C@]5(C)[C@@]4(F)[C@@H](O)C[C@]3(C)[C@]2(C(=O)CO)O1 [fluocinolone acetonide]	inactive
O=C1NN(c2ccc(F)c(Cl)c2)C(=O)/C1=C\c1ccc([N+](=O)[O-])o1	inactive
CO[C@H]1C=CO[C@@]2(C)Oc3c(C)c(O)c4c(O)c(c(/C=N/N5CCN(C)CC5)c(O)c4c3C2=O)NC(=O)C(C)=CC=C[C@H](C)[C@H](O)[C@@H](C)[C@@H](O)[C@@H](C)[C@H](OC(C)=O)[C@@H]1C	inactive
Nc1ncnc2c1nc(Br)n2[C@@H]1O[C@@H]2COP(=O)(O)O[C@H]2[C@H]1O [8-Bromo-cAMP, sodium salt]	inactive
O=S(=O)(N[C@H](CO)C(C(F)(F)F)C(F)(F)F)c1ccc(Cl)s1	inactive

Enquiry: Answer briefly: the call reported for CCCc1cc(C)n(C)c(=O)c1CN(C)C(=O)c1cc(-c2ccc(N3CCN(C(C)C)CC3)nc2)cc2c1cnn2C(C)C in this assay.
Return: inactive

Enquiry: Here is the next compound: COCc1nc2c([nH]1)c(=O)n(C)c(=O)n2CC(C)C
Return: inactive

Enquiry: Try CN(N=O)C(=O)N[C@@H](C=O)[C@@H](O)[C@H](O)[C@H](O)CO.CN(N=O)C(=O)N[C@H]1C(O)O[C@H](CO)[C@@H](O)[C@@H]1O next.
Return: inactive

Enquiry: Next entry: COc1cc(NC(=O)c2cccc(-n3cc(NC(=O)Nc4cccc(C)c4)cn3)c2)cc(OC)c1OC
Return: inactive

Enquiry: Next up: COC(=O)c1c(C)cc(OC(=O)c2c(C)cc(O)c(C=O)c2O)c(C)c1O
Return: inactive

Enquiry: // query: CC[C@]1(O)C[C@@H]2CN(CCc3c([nH]c4ccccc34)[C@@](C(=O)OC)(c3cc4c(cc3OC)N(C=O)[C@H]3[C@@](O)(C(=O)OC)[C@H](OC(C)=O)[C@]5(CC)C=CCN6CC[C@]43[C@@H]65)C2)C1
Return: active

Enquiry: Could you do the same for COC(=O)C1=CO[C@@H](O[C@@H]2O[C@H](CO)[C@@H](O)[C@H](O)[C@H]2O)[C@H]2[C@@H]1C(=O)C[C@@H]2C , please?
Return: inactive

Enquiry: Also need CN/C(=C/[N+](=O)[O-])NCCSCc1csc(CN(C)C)n1 , thanks.
Return: inactive

Enquiry: Follow-up item: C/C=C1/[C@H]2C=C(C)C[C@]1(N)c1ccc(=O)[nH]c1C2
Return: inactive

Enquiry: Input CNC(=C[N+](=O)[O-])NCCSCc1ccc(CN(C)C)o1
Return: inactive

Enquiry: Next up: CC1(CN2CCC(n3c(=O)[nH]c4ccccc43)CC2)OCc2ccccc2-n2cccc21 (configuration not stated)
Return: inactive

Enquiry: Proceed to CCCCc1oc2ccccc2c1C(=O)c1cc(I)c(OCCN(CC)CC)c(I)c1
Return: active

Enquiry: Subsequent entry: COc1cc([C@@H]2c3cc4c(cc3[C@@H](O[C@@H]3O[C@@H]5CO[C@@H](c6cccs6)O[C@H]5[C@H](O)[C@H]3O)[C@H]3COC(=O)[C@H]23)OCO4)cc(OC)c1O [teniposide]
Return: active

Enquiry: Cool, now CC(=O)OCC[N+](C)(C)C
Return: inactive

Enquiry: Next record, please: CCCN(CCC)CCc1cccc2c1CC(=O)N2
Return: inactive

Enquiry: Next compound: Oc1cc(O)c2c(c1)O[C@H](c1ccc(O)c(O)c1)[C@@H](O)C2 [Epicatechin-(-)]
Return: inactive

Enquiry: Another compound: C[C@H](NC(=O)[C@@H](O)c1cc(F)cc(F)c1)C(=O)N[C@@H]1C(=O)N(C)c2ccccc2-c2ccccc21
Return: inactive
